Readings of pEC50 for the listed compounds
System: L. donovani HU3 strain in mouse peritoneal macrophages
measurement protocol: Assay for proliferation of Leishmania parasites in infected mouse peritoneal macrophages (SybrGreen staining, high-content imaging, 5 days)
Format: cell-based, Leishmania donovani
conditions used: Leishmania donovani, Peritoneal macrophage, L. donovani in mouse peritoneal macrophages, inhibition of proliferation; read-out: L. donovani Macrophage EC50
Bear in mind: pEC50 is minus log10 of a mol/L concentration; give just that figure.

Recorded results for 3 compounds are shown here.
Cc1nc(C)c(C(=O)Nc2ccc(F)c(-c3cn4cc(C5=CCN(C(=O)OC(C)(C)C)CC5)cnc4n3)c2)o1; 6.82
CC(C)OC(=O)Nc1cnc2nc(-c3cc(NC(=O)N4CC[C@@H](F)C4)ccc3Cl)cn2c1; 5.74
COCCOC(=O)Nc1cnc2nc(-c3cc(NC(=O)c4oc(C)nc4C)ccc3F)cn2c1; 4.98

pEC50 in this record for CCN(C)C(=O)Nc1ccc(Cl)c(-c2cn3cc(NC(=O)OC(C)C)cnc3n2)c1 : 6.08

* * *

Readings of pEC50 for the listed molecules
System: L. donovani HU3 strain in mouse peritoneal macrophages
measurement protocol: Assay for proliferation of Leishmania parasites in infected mouse peritoneal macrophages (SybrGreen staining, high-content imaging, 5 days)
Type: cell-based, Leishmania donovani
conditions used: Leishmania donovani, Peritoneal macrophage, L. donovani in mouse peritoneal macrophages, inhibition of proliferation; read-out: L. donovani Macrophage EC50
Bear in mind: pEC50 is minus log10 of a mol/L concentration; give just that figure.

CC(C)OC(=O)Nc1cnc2nc(-c3cc(NC(=O)c4nccs4)ccc3F)cn2c1; 5.66

pEC50 in this record for CC(C)OC(=O)Nc1cnc2nc(-c3cc(NC(=O)C4CCCO4)ccc3Cl)cn2c1 (stereo not drawn) : 4.57

pEC50 in this record for CC(C)OC(=O)Nc1cnc2nc(-c3cc(NC(=O)c4cccn4C)ccc3F)cn2c1 : 4.82

pEC50 in this record for Cc1nc(C)c(C(=O)Nc2ccc(F)c(-c3cn4cc(NC(=O)c5ccccn5)cnc4n3)c2)o1 : 6.54

pEC50 in this record for Cc1nc(C)c(C(=O)Nc2ccc(F)c(-c3cn4cc(-c5cccn5C(=O)OC(C)(C)C)cnc4n3)c2)o1 : 6.81

pEC50 in this record for O=C(Nc1cnc2nc(-c3cc(NC(=O)N4CCCC4)ccc3F)cn2c1)C1CCCCO1 (stereo not drawn) : 5.90

* * *

System: Trypanosoma cruzi amastigotes (Tulahuen strain expressing Lac-Z) cultured in 3T3 fibroblast cells
measurement protocol: microbe, parasite or virus in culture
Format: cell-based
conditions used: T. cruzi amastigotes in 3T3 fibroblast cells, inhibition of proliferation; read-out: T cruzi EC50
measured attribute: EC50 (nM)
Express the result in nM but write the number alone.

EC50 in this record for Cc1nc(C)c(C(=O)Nc2ccc(F)c(-c3cn4cc(NC(=O)C5CCCCO5)cnc4n3)c2)o1 (single isomer, unassigned) [Compound 185] : 1070

* * *

System: Leishmania donovani axenic amastigote parasites
measurement protocol: Leishmania donovani axenic amastigote proliferation assay (Cell TiterGlo luminescence, 2 day incubation)
Format: cell-based
conditions used: Leishmania donovani, L. donovani axenic amastigotes; read-out: L. donovani amastigotes EC50
measured attribute: EC50 (nM)
Express the result in nM but write the number alone.

Recorded results for 2 compounds are shown here.
O=C(Nc1ccc(F)c(-c2cn3cc(-c4cccnc4)cnc3n2)c1)N1CC(F)(F)C1 [Compound 402]; 69
Cc1ncc(C(=O)Nc2ccc(F)c(-c3cn4cc(-c5cccnc5)cnc4n3)c2)o1 [Compound 398]; 186

Now consider a different compound.
EC50 in this record for Cc1ccc(-c2cnc3nc(-c4cc(NC(=O)c5oc(C)nc5C)ccc4F)cn3c2)cn1 [Compound 441] : 97

* * *

Test system: Trypanosoma cruzi amastigotes (Tulahuen strain expressing Lac-Z) cultured in 3T3 fibroblast cells
measurement protocol: microbe, parasite or virus in culture
Assay type: cell-based
conditions used: Trypanosoma cruzi, TULAHUEN, Fibroblast, T. cruzi amastigotes in 3T3 fibroblast cells; read-out: T cruzi EC50
measured attribute: pEC50
Bear in mind: pEC50 is minus log10 of a mol/L concentration; give just that figure.

Recorded results for 4 compounds are shown here.
CC(C)Nc1cnc2nc(-c3cc(NC(=O)N4CCC4)ccc3F)cn2c1 [Compound 564]; 6.69
O=C(Nc1ccc(F)c(-c2cn3cc(C4CC4)cnc3n2)c1)N1CC[C@@H](F)C1 [Compound 605]; 7.80
Cc1nc(C)c(C(=O)Nc2ccc(F)c(-c3cn4cc(-c5ccccc5F)cnc4n3)c2)o1 [Compound 391]; 7.80
CC(C)Nc1cnc2nc(-c3cc(NC(=O)N4CCCC4)ccc3F)cn2c1 [Compound 476]; 6.82

pEC50 in this record for Cc1nc(C)c(C(=O)Nc2ccc(F)c(-c3cn4cc(-c5nccn5C)cnc4n3)c2)o1 [Compound 427] : 5.88

pEC50 in this record for CCc1cnc2nc(-c3cc(NC(=O)c4oc(C)nc4C)ccc3F)cn2c1 [Compound 423] : 7.32

pEC50 in this record for Cc1nc(C)c(C(=O)Nc2ccc(F)c(-c3cn4cc(C5=CC(C)(C)OC(C)(C)C5)cnc4n3)c2)o1 [Compound 379] : 6.17

* * *

Readings of pEC50 for the listed molecules
Tested on: Leishmania donovani axenic amastigote parasites
measurement protocol: Leishmania donovani axenic amastigote proliferation assay (Cell TiterGlo luminescence, 2 day incubation)
Assay type: cell-based
conditions used: Leishmania donovani, L. donovani axenic amastigotes; read-out: L. donovani amastigotes EC50
Bear in mind: pEC50 is minus log10 of a mol/L concentration; give just that figure.

Recorded results for 2 molecules are shown here.
Cc1ncc(C(=O)Nc2ccc(F)c(-c3cn4cc(NC(C)C)cnc4n3)c2)o1 [Compound 462]; 6.76
Nc1cnc2nc(-c3cc(NC(=O)c4ccc(F)o4)ccc3Cl)cn2c1 [Compound 577]; 5.52

Now consider a different molecule.
pEC50 in this record for Cc1nc(C)c(C(=O)Nc2ccc(F)c(-c3cn4cc(-c5cn(C)cn5)cnc4n3)c2)o1 [Compound 426] : 7.80

* * *

Readings of EC50 for the listed compounds
Test system: L. donovani HU3 strain in mouse peritoneal macrophages
measurement protocol: Assay for proliferation of Leishmania parasites in infected mouse peritoneal macrophages (SybrGreen staining, high-content imaging, 5 days)
Type: cell-based, Leishmania donovani
conditions used: Leishmania donovani, Peritoneal macrophage, L. donovani in mouse peritoneal macrophages, inhibition of proliferation; read-out: L. donovani Macrophage EC50
Express the result in µM but write the number alone.

CC(=O)c1ccc(C(=O)Nc2ccc(F)c(-c3cn4cc(NC(=O)OC(C)C)cnc4n3)c2)s1 [Compound 83]; 6.81
O=C(Nc1ccc(F)c(-c2cn3cc(-c4ccc(CCN5CCOCC5)cc4)cnc3n2)c1)N1CCCC1 [Compound 352]; 0.061
Cc1nc(C)c(C(=O)Nc2ccc(F)c(-c3cn4cc(-c5cncn5C)cnc4n3)c2)o1 [Compound 370]; 3.61

EC50 in this record for CCN(C)C(=O)Nc1ccc(F)c(-c2cn3cc(-c4ccccc4)cnc3n2)c1 [Compound 327] : 0.459

EC50 in this record for CN(C)C(=O)Nc1ccc(F)c(-c2cn3cc(C(F)F)cnc3n2)c1 [Compound 239] : 2.2

EC50 in this record for Cc1nc(C)c(C(=O)Nc2cccc(-c3cn4cc(C5=CCOCC5)cnc4n3)c2)o1 [Compound 335] : 0.521

EC50 in this record for Cc1nc(C)c(C(=O)Nc2ccc(F)c(-c3cn4cc(C5CC5)cnc4n3)c2)o1 [Compound 339] : 0.272

EC50 in this record for O=C(Nc1ccc(F)c(-c2cn3cc(Cl)cnc3n2)c1)N1CC[C@@H](F)C1 [Compound 236] : 0.434

EC50 in this record for CC(C)OC(=O)Nc1cnc2nc(-c3cc(NC(=O)N4CCCC4)ccc3F)cn2c1 [Compound 17] : 0.35

* * *

System: L. donovani HU3 strain in mouse peritoneal macrophages
measurement protocol: Assay for proliferation of Leishmania parasites in infected mouse peritoneal macrophages (SybrGreen staining, high-content imaging, 5 days)
Format: cell-based, Leishmania donovani
conditions used: Leishmania donovani, Peritoneal macrophage, L. donovani in mouse peritoneal macrophages, inhibition of proliferation; read-out: L. donovani Macrophage EC50
Readings of log10(EC50) for the listed compounds
Hello, just confirming the data are log10 of EC50 with units of µM.

Recorded results for 5 compounds are shown here.
CC(C)OC(=O)Nc1cnc2nc(-c3cccc(NC(=O)N(C)C)c3)cn2c1 [Compound 20]; 0.90
CC(C)OC(=O)Nc1cnc2nc(-c3cc(NC(=O)c4ccno4)ccc3F)cn2c1 [Compound 72]; 0.92
O=C(Nc1cnc2nc(-c3cc(NC(=O)N4CCCC4)ccc3F)cn2c1)C1CC1 [Compound 134]; 0.92
O=C(Nc1ccc(F)c(-c2cn3cc(F)cnc3n2)c1)N1CC(F)(F)C1 [Compound 233]; 0.31
CC(C)OC(=O)Nc1cnc2nc(-c3cc(NC(=O)C4CCC4)ccc3F)cn2c1 [Compound 102]; 0.23

log10(EC50) in this record for CC(C)OC(=O)Nc1cnc2nc(-c3cc(NC(=O)N(C(C)C)C(C)C)ccc3F)cn2c1 [Compound 228] : 1.29

log10(EC50) in this record for CC(C)OC(=O)Nc1cnc2nc(-c3cc(NC(=O)N4CC[C@@H](F)C4)ccc3F)cn2c1 [Compound 229] : 0.45

log10(EC50) in this record for Cc1nc(C)c(C(=O)Nc2ccc(F)c(-c3cn4cc(NC(=O)C5CCCOC5)cnc4n3)c2)o1 (centres unmarked) [Compound 154] : 0.40
